Molecular target: T1, TraI trans-esterase domain (TraI-TE) (Escherichia coli? (plasmid pKM101), UniProt D9Z5Q2 1-299)
T1 sequence: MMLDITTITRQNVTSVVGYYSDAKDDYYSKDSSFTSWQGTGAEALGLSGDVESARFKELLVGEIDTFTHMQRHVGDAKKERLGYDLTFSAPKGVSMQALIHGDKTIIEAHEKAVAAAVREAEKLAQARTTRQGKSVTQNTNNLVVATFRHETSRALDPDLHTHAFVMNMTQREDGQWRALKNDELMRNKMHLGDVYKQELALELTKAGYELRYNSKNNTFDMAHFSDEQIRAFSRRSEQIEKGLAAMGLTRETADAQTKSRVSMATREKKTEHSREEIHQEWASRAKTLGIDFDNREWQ
Test: EMSA; apparent Kd, half-shift point; EMSA: 50 nM FITC-DNA, 0-1600 nM protein, 25 mM Hepes-NaOH pH 7.0, 300 mM NaCl, room temperature 15 min; 5% PAGE, 0.75x TBE, 4 C
Conditions: protein: recombinant; tags: 10xHis with 3C site, cleaved off; label: 5' FITC; hairpin
pKd: −log10 of the molar value.
MEASURED QUANTITY: pKd

Field request: pKd | item: F-oriT57 (structured_DNA) DNA: TGTGATAGCGTGATTTATCGCGCTGCGTTAGGTGTATAGCAGGTTAAGGGATAAAAA
> 6.70
